Source of measurements: ChEMBL document CHEMBL5380843

# assay explanation: AUC (0 to t) in Sprague-Dawley rat at 1 mg/kg, iv measured upto 24 hrs by LC-MS/MS analysis
# Type: ADME, organism-based
# Set-up: time < 24 hrs, dose 1 mg/kg, route iv
# condition: in vivo
experimental endpoint: AUC(0-t) at 24 h (ng·h/mL)
Form entry: value (ng·h/mL) — number only.

Request: // lookup AUC(0-t) at 24 h for `CONC(=O)c1cnc(Nc2ccc(C#N)cc2)nc1Oc1c(C)cc(-c2ccc(C#N)cc2)cc1C`
Response: 1160

----------
# assay explanation: Selectivity index, ratio of CC50 for cytotoxicity against human MT4 cells to EC50 for antiviral activity against wild type HIV-1 IIIB infected in human MT4 cells
# Format: toxicity, cell-based
# condition: read-out: Ratio CC50/EC50
Property: selectivity ratio; scope: individual molecules
# print the numeric value only

Known results for molecules:
structure smiles string: CCNC(=O)c1cnc(Nc2ccc(C#N)cc2)nc1Oc1c(C)cc(-c2ccc(C#N)cc2)cc1C
selectivity ratio: 22500

structure smiles string: Cc1cc(-c2ccc(C#N)cc2)cc(C)c1Oc1nc(Nc2ccc(C#N)cc2)ncc1C(=O)NCC1CC1
selectivity ratio: 2060

structure smiles string: CCCNC(=O)c1cnc(Nc2ccc(C#N)cc2)nc1Oc1c(C)cc(-c2ccc(C#N)cc2)cc1C
selectivity ratio: 14700

Kindly consider the entry below.
Request: // lookup selectivity ratio for `Cc1cc(-c2ccc(C#N)cc2)cc(C)c1Oc1nc(Nc2ccc(C#N)cc2)ncc1C(=O)NC1CC1`
Response: 10600

----------
# assay explanation: Half life in Sprague-Dawley rat at 10 mg/kg, po measured upto 24 hrs by LC-MS/MS analysis
# Assay type: ADME, organism-based
# condition: in vivo
experimental endpoint: half-life (h)
Form entry: value (h) — number only.

Request: // lookup half-life for `CONC(=O)c1cnc(Nc2ccc(C#N)cc2)nc1Oc1c(C)cc(-c2ccc(C#N)cc2)cc1C`
Response: 5.18

----------
# assay explanation: AUC (0 to infinity) in Sprague-Dawley rat at 10 mg/kg, po measured upto 24 hrs by LC-MS/MS analysis
# Format: ADME, organism-based
# Parameters: dose 10 mg/kg, time < 24 hrs, route po
# condition: in vivo
experimental endpoint: AUC(0-inf) (ng·h/mL)
Form entry: value (ng·h/mL) — number only.

Request: // lookup AUC(0-inf) for `CONC(=O)c1cnc(Nc2ccc(C#N)cc2)nc1Oc1c(C)cc(-c2ccc(C#N)cc2)cc1C`
Response: 3650

----------
# assay target: Cytochrome P450 3A4 (Homo sapiens)
# Sequence (P08684 whole entry): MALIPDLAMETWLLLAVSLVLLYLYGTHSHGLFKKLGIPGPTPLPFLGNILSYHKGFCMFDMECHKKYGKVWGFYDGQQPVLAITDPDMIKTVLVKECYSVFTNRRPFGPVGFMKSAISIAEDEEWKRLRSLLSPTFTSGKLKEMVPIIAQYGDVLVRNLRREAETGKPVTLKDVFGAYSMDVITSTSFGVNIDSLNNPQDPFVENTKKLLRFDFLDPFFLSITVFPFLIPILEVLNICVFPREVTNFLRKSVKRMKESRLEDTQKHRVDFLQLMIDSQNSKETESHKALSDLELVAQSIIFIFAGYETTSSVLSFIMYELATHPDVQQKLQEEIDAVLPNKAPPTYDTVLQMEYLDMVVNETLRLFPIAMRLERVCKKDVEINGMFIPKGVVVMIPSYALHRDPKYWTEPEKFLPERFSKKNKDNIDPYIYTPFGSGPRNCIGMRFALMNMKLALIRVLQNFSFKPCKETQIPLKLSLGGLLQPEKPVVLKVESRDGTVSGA
# assay explanation: Inhibition of CYP3A4 in human liver microsomes using midazolam as substrate incubated for 15 to 45 mins in presence of NADPH
# Assay type: ADME, Microsome
experimental endpoint: IC50

Request: Record `CONC(=O)c1cnc(Nc2ccc(C#N)cc2)nc1Oc1c(C)cc(-c2ccc(C#N)cc2)cc1C` : what is its IC50 with Cytochrome P450 3A4 (Homo sapiens)?
Response: > 50 µM

----------
# assay target: Cytochrome P450 1A2 (Homo sapiens)
# Sequence (P05177 whole entry): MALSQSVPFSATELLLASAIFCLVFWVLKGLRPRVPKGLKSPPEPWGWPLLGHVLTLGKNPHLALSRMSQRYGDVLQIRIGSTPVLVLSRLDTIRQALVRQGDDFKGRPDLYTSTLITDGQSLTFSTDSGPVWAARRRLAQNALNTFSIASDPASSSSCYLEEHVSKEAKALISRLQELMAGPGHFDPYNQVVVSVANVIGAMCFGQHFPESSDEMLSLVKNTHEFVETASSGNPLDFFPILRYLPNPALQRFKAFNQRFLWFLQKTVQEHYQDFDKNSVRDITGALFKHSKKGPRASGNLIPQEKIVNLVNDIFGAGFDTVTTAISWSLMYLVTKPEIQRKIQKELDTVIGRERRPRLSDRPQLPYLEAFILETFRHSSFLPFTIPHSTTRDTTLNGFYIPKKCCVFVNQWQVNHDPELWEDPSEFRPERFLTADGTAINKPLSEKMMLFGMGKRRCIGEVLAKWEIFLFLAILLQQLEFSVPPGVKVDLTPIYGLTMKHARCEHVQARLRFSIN
# assay explanation: Inhibition of CYP1A2 in human liver microsomes using phenacetin as substrate incubated for 15 to 45 mins in presence of NADPH
# Format: ADME, Microsome
experimental endpoint: IC50

Request: // lookup IC50 for `CONC(=O)c1cnc(Nc2ccc(C#N)cc2)nc1Oc1c(C)cc(-c2ccc(C#N)cc2)cc1C`
Response: > 50 µM
